Biological target: T1, 4H717-AA
T1 chain: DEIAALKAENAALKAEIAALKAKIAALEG
Assay: two-hybrid library CCmax;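 further: natural log of median RNA to DNA barcode read ratio; higher means stronger binding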
Details: mean of both orientations
Test readout: interaction score

Binder	Test readout	Assay value
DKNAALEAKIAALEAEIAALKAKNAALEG [4H3343-AA]	interaction score	-1.27
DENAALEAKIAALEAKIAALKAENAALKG [4H1324-AA]	interaction score	-1.26
DENAALEAKNAALEAKIAALEAKIAALKG [4H1446-AA]	interaction score	-1.15
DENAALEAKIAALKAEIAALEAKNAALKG [4H1352-AA]	interaction score	-1.46

Values compiled from paper PMC10397247.
